TARGET: T1, human kappa opioid receptor (human, UniProt P41145 1-380)
T1 construct: kappa opioid receptor, human recombinant, in membranes of transfected CHO cells; also called kappa receptor; source: commercial membranes of CHO cells transfected with human recombinant opioid receptors
T1 sequence (P41145 whole entry): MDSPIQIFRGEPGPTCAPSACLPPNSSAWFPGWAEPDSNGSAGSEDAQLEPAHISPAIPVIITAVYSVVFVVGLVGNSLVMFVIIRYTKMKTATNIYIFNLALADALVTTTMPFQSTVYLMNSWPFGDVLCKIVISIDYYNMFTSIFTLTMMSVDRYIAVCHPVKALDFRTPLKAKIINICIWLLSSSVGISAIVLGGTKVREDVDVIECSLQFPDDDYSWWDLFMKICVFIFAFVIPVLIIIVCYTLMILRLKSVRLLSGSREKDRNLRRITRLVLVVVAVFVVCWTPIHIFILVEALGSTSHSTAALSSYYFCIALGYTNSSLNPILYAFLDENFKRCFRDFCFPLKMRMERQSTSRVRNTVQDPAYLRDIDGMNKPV
MEASUREMENT DESCRIPTION: radioligand binding; displacement of [3H]U-69593 from commercial membranes of CHO cells transfected with the human recombinant kappa opioid receptor; Ki, mean ± SEM, n ≥ 3
SETUP CONDITIONS: one partner purified
Starred links: 1 amine or outer side, 2 acyl side, 3 side chain; linkers in the order of their positions; H or OH if unused. Non-standard residues stand in square brackets, D forms with d. No end group written: not given here. (R)β21Nal = (R)-β2-1-naphthylalanine, O=C([C@@H](CN[*:1])Cc1cccc2ccccc12)[*:2]; (R)β31Nal = (R)-β3-1-naphthylalanine, O=C(C[C@@H](Cc1cccc2ccccc12)N[*:1])[*:2]; Dmt = Cc1cc(O)cc(C)c1C[C@H](N)C(=O)O
ASSAY READOUT: Ki

Illustrative cases are given below, each with its answer.
| BINDER | Ki |
| --- | --- |
| [Dmt]P[(R)β21Nal]F-NH2 (N-terminus assumed; SMILES Cc1cc(O)cc(C)c1C[C@H](N)C(=O)N1CCC[C@H]1C(=O)NC[C@@H](Cc1cccc2ccccc12)C(=O)N[C@@H](Cc1ccccc1)C(N)=O) [EM-2 analog 11 (Dmt-Pro-(R)-β2-1-Nal-Phe-NH2)] | > 1000 nM |
| YP[(R)β21Nal]F-NH2 (N-terminus assumed; SMILES NC(=O)[C@H](Cc1ccccc1)NC(=O)[C@@H](CNC(=O)[C@@H]1CCCN1C(=O)[C@@H](N)Cc1ccc(O)cc1)Cc1cccc2ccccc12) [EM-2 analog 10 (Tyr-Pro-(R)-β2-1-Nal-Phe-NH2)] | > 1000 nM |
| YP[(R)β31Nal]F-NH2 (N-terminus assumed; SMILES NC(=O)[C@H](Cc1ccccc1)NC(=O)C[C@@H](Cc1cccc2ccccc12)NC(=O)[C@@H]1CCCN1C(=O)[C@@H](N)Cc1ccc(O)cc1) [EM-2 analog 12 (Tyr-Pro-(R)-β3-1-Nal-Phe-NH2)] | > 1000 nM |

Now for a further binder.
[ask] Ki lookup needed for [Dmt]P[(R)β31Nal]F-NH2 (N-terminus assumed; SMILES Cc1cc(O)cc(C)c1C[C@H](N)C(=O)N1CCC[C@H]1C(=O)N[C@@H](CC(=O)N[C@@H](Cc1ccccc1)C(N)=O)Cc1cccc2ccccc12) [EM-2 analog 13 (Dmt-Pro-(R)-β3-1-Nal-Phe-NH2)] , thanks.
[reply] 915 nM
